src = the supplement of paper PMC8967900

- Test system: MN-60
- test.name: selective drug sensitivity score (sDSS, relative to normal bone marrow) (sDSS (score)); higher = more potent and effective on the cell line relative to normal bone marrow cells;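 note: ALL cell lines in 384-well plates, five doses spanning 10,000-fold, each plate scaled between vehicle and 100 µmol/L benzalkonium chloride controls, sDSS an adapted area-under-curve metric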
- cond: 72 h
assay.endpoint: selective drug sensitivity score

compound | reported.result
Cc1ccc(-n2nc(C(C)(C)C)cc2NC(=O)Nc2ccc(OCCN3CCOCC3)c3ccccc23)cc1 [Doramapimod] (top concentration 10000 nM) | 0.66
N.N.[Cl][Pt][Cl] [Cisplatin] (top concentration 100000 nM) | -0.56
Cc1c(-c2c(-c3ccc(F)o3)sc3ncnc(O[C@H](Cc4ccccc4OCc4ccnn4CC(F)(F)F)C(=O)O)c23)ccc(OCCN2CCN(C)CC2)c1Cl (top concentration 1000 nM) | -7.74
Nc1cc(C(F)(F)F)c(-c2cc(N3CCOCC3)nc(N3CCOCC3)n2)cn1 [Buparlisib] (top concentration 10000 nM) | 2.68
O=C(Nc1c[nH]nc1-c1nc2ccc(CN3CCOCC3)cc2[nH]1)NC1CC1 [AT9283] (top concentration 1000 nM) | 1.02
CC(C)Oc1ccc(-c2nn([C@@H](C)c3oc4ccc(F)cc4c(=O)c3-c3cccc(F)c3)c3ncnc(N)c23)cc1F [TGR-1202] (top concentration 2500 nM) | -2.56
CC(C)N(CCCNC(=O)Nc1ccc(C(C)(C)C)cc1)C[C@H]1O[C@@H](n2cc(Br)c3c(N)ncnc32)[C@H](O)[C@@H]1O [SGC0946] (top concentration 10000 nM) | -0.72
CC(=O)O[C@H]1C(=O)[C@@]2(C)[C@H]([C@H](OC(=O)c3ccccc3)[C@]3(O)C[C@H](OC(=O)[C@H](O)[C@@H](NC(=O)c4ccccc4)c4ccccc4)C(C)=C1C3(C)C)[C@]1(OC(C)=O)CO[C@@H]1C[C@@H]2O [Paclitaxel] (top concentration 1000 nM) | -0.36
C=CC(=O)Nc1cccc(Oc2nc(Nc3ccc(N4CCN(C)CC4)cc3)nc3ccsc23)c1 [Olmutinib] (top concentration 1000 nM) | -0.02
C=CC(=O)N1CC/C(=C\c2ccc(F)c([N+](=O)[O-])c2)C(=O)/C(=C/c2ccc(F)c([N+](=O)[O-])c2)C1 [VLX1570] (top concentration 10000 nM) | -5.32
COc1cc([C@@H]2c3cc4c(cc3[C@@H](O[C@@H]3O[C@@H]5CO[C@@H](C)O[C@H]5[C@H](O)[C@H]3O)[C@H]3COC(=O)[C@H]23)OCO4)cc(OC)c1O [Etoposide] (top concentration 10000 nM) | -0.86

---

- System: MOLT-4
- test.name: selective drug sensitivity score (sDSS, relative to normal bone marrow) (sDSS (score)); higher = more potent and effective on the cell line relative to normal bone marrow cells
- cond: 72 h
Recorded measurements of selective drug sensitivity score, one per entry
assay.endpoint: selective drug sensitivity score

molecule | system.under.test | assay.endpoint | reported.result
C=CC(=O)Nc1cccc(Nc2nc(Nc3ccc(N4CCN(C(C)=O)CC4)cc3OC)ncc2C(F)(F)F)c1 [Rociletinib] (top concentration 10000 nM) | MOLT-4 | selective drug sensitivity score | 2.04
Cc1nc2cccc(N)c2c(=O)n1C1CCC(=O)NC1=O (stereo unspecified) [Avadomide (CC122)] (top concentration 10000 nM) | MOLT-4 | selective drug sensitivity score | 0
CC(C)[C@H]1C(=O)N[C@@H](CCCNC(=N)N)C(=O)NCC(=O)N[C@@H](CC(=O)O)C(=O)N[C@H](Cc2ccccc2)C(=O)N1C [Cilengitide] (top concentration 10000 nM) | MOLT-4 | selective drug sensitivity score | 0
Cc1ncc(Cl)cc1NCc1ccc(C(=O)N[C@@H](CC2CCCC2)C(=O)NC2CC2)s1 (top concentration 5000 nM) | MOLT-4 | selective drug sensitivity score | 3.26
CCN(CC)CCNC(=O)c1c(C)[nH]c(/C=C2\C(=O)Nc3ccc(-c4csc(-c5ccccc5)n4)cc32)c1C [Amcasertib] (top concentration 10000 nM) | MOLT-4 | selective drug sensitivity score | -2.4
O=C(O)c1ccc(CN2CCC(CN[C@@H]3C[C@H]3c3ccccc3)CC2)cc1 (top concentration 100000 nM) | MOLT-4 | selective drug sensitivity score | -0.62
CO[C@@H]1[C@H](N(C)C(=O)c2ccccc2)C[C@H]2O[C@]1(C)n1c3ccccc3c3c4c(c5c6ccccc6n2c5c31)C(=O)NC4 [Midostaurin] (top concentration 10000 nM) | MOLT-4 | selective drug sensitivity score | 8.66
CC[C@H](CC#N)OC(=O)N[C@@H](C)c1cccc(NC(=O)Nc2ccc(-c3cnco3)c(OC)c2)c1 [AVN944] (top concentration 10000 nM) | MOLT-4 | selective drug sensitivity score | 15.6
COc1cc2c(cc1-c1c(C)noc1C)ncc1[nH]c(=O)n([C@H](C)c3ccccn3)c12 [I-BET151] (top concentration 10000 nM) | MOLT-4 | selective drug sensitivity score | -4.34
O=c1ncn2nc(Sc3ccc(F)cc3F)ccc2c1-c1c(Cl)cccc1Cl [Neflamapimod] (top concentration 10000 nM) | MOLT-4 | selective drug sensitivity score | 0
CC(O)c1cc(C(=O)N[C@@H](C)Cn2ccc(-c3ccc(C#N)c(Cl)c3)n2)n[nH]1 (stereo partly specified) [ODM-201] (top concentration 2500 nM) | MOLT-4 | selective drug sensitivity score | -0.18
